System: RARa homodimer (NR concentration 270 nM)
test: PBM binding z-score (relative to random genomic background probes); higher = stronger binding; sequences stand for … in GC…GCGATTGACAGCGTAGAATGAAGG
observedProperty: PBM binding z-score

{"macromoleculeSequence": "CCTGCTAGGTCATGGTCAGCTTATCTACAGTATG", "reading": 0.172}
{"macromoleculeSequence": "CCTAGTGGGTCAAGGTCACACACGCTATAGGTAC", "reading": 2.82}
{"macromoleculeSequence": "TGTCAAAGTTCAAGGGTAACGTAAGTATCCACAC", "reading": 0.926}
{"macromoleculeSequence": "TCTGCTAGGTGAGTTGGTCAGCTAACGAGCTGCC", "reading": -1.28}
{"macromoleculeSequence": "CCTCGGAGGACAGAAGGTCAGAGCAGTCCGCTTT", "reading": 0.42}
{"macromoleculeSequence": "ATATGTAGGTTCGCTGGGGTCATTCAGACTAGGC", "reading": 1.12}
{"macromoleculeSequence": "AGTCAAAGTTCATCTATGTAACGTAAGATATGCT", "reading": 1.52}
{"macromoleculeSequence": "ATCTCTAGGTAAGACTCAGTTCTGTGAAGAACGC", "reading": 1.02}
{"macromoleculeSequence": "CGGCCTAGGTCAGGGCCAGTATAGGAGGAACGTT", "reading": -0.476}
{"macromoleculeSequence": "TTTAGCAGGCCAGAGGGTCACTCAAGAGGTACGG", "reading": -0.62}
{"macromoleculeSequence": "TTAGCAAGGTGAGCTGAGGTCGTTGATCCAACTC", "reading": -1.15}
{"macromoleculeSequence": "ATCGAAAGGTCTACGAGGTGAGTATACACCGTTT", "reading": 0.434}
{"macromoleculeSequence": "CGTGCAAGGTCAGCAGGTCAGTGAAAGCGACGTG", "reading": 0.769}
{"macromoleculeSequence": "CCTACTGGGCCATCCAGAGGTCATTGATCATATG", "reading": 0.594}
{"macromoleculeSequence": "ACTAGCAGGCCAAGTTTGGGTCACACAAACAAAG", "reading": -0.318}
{"macromoleculeSequence": "CCTGCTAGGTGAATGGTCAGCTAAAGCAGCTCGC", "reading": -1.03}
{"macromoleculeSequence": "TAGCCTAGGCCATTCAGGGGCCAGTATAGAAAGC", "reading": -0.891}
{"macromoleculeSequence": "ATATGTAGGCTAGCTGGGGTCATTCAGACTAGGC", "reading": 0.344}
{"macromoleculeSequence": "TCTAGTTGGTCAAAGGTTACACACTCGAAATGCG", "reading": 2.25}
{"macromoleculeSequence": "CGCGAAAGGTCGGTTGAGGTGAGTATACGGATAA", "reading": 0.138}
{"macromoleculeSequence": "CAGCCTAGGTCAGGGCCTGTATAGGAGGAACGTT", "reading": -1.2}
{"macromoleculeSequence": "ACTAGCAGGCCAAGTTTGGGTCATTCAAACAAAG", "reading": -0.276}
{"macromoleculeSequence": "TATACAGGTTCAAAGGCCAGAGTACGAATGTCGA", "reading": 1.41}
{"macromoleculeSequence": "CCTACTGGGCCAAGGTCATCGATCAGTCAAAGCA", "reading": 0.517}
{"macromoleculeSequence": "CCTAGCAGGCCAGGGTCAATCAAGCATTTCGCTT", "reading": 0.17}
{"macromoleculeSequence": "CAAACTAGGTCACCGGAACGTCAAAGTCCGCATG", "reading": 0.352}
